measured.target: HLA-A*02:01 (Homo sapiens, UniProt P04439, D140Y/D185E/D98H/E176V/E277Q/G131W/G231S/I119V/I121R/I166T/I218V/L300P/L318F/N151K/N90K/P208A/P217A/Q86G/Q94H/R138H/R169H/T345S)
assay.info: MHC binding assay (UV-ligand exchange, beta2m ELISA, peptide exchange yield)
experimental.conditions: MHC class I binding score; binding to HLA-A*02:01 ranged by peptide exchange yield (UV-ligand exchange, β2m ELISA)
Text: Candidate peptides for T cell based therapies according to the present invention were further tested for their MHC binding capacity (affinity). The individual peptide-MHC complexes were produced by UV-ligand exchange, where a UV-sensitive peptide is cleaved upon UV-irradiation, and exchanged with the peptide of interest as analyzed. Only peptide candidates that can effectively bind and stabilize the peptide-receptive MHC molecules prevent dissociation of the MHC complexes. […]
attribute.measured: Peptide exchange

Worked set:
substance="100 (SLDDFLATA; listed as Homo sapiens) [compound 100]" attribute_measured="Peptide exchange" result="″+++″ (≥50 = +++)"
substance="7 (YLTRHLAVL; listed as Homo sapiens) [compound 7]" attribute_measured="Peptide exchange" result="″++″ (≥20% = ++)"
substance="99 (KLLEVDLDTV; listed as Homo sapiens) [compound 99]" attribute_measured="Peptide exchange" result="″+++″ (≥50 = +++)"
substance="170 (ALAGGITMV; listed as Homo sapiens) [compound 170]" attribute_measured="Peptide exchange" result="″+++″ (≥50 = +++)"
substance="138 (KQFEGTVEI; listed as Homo sapiens) [compound 138]" attribute_measured="Peptide exchange" result="″+++″ (≥50 = +++)"
substance="154 (KLPSETIFVGC; listed as Homo sapiens) [compound 154]" attribute_measured="Peptide exchange" result="″+++″ (≥50 = +++)"
substance="8 (ALMLQGVDLL; listed as Homo sapiens) [compound 8]" attribute_measured="Peptide exchange" result="″+++″ (≥50 = +++)"
substance="60 (VLDEDEPRFL; listed as Homo sapiens) [compound 60]" attribute_measured="Peptide exchange" result="″++″ (≥20% = ++)"

Entry 115 (SLFDVSHML; listed as Homo sapiens) [compound 115] ; Peptide exchange = ″+++″ (≥50 = +++)
